Quick list: growth per entry.
- Tested on: CAKI-1 renal
- Test Method Notes: NCI-60 one-dose screen, 48 h (100 = growth as untreated, 0 = no growth, -100 = all killed)
- Measurement Setup: 10 µM unless noted
About 83,000 compounds went through this panel and 20% of them were active in at least one assay; those are over-represented in the sample as a whole.
Please give a number only; it is taken to be in %.

[in] Lab note: CAKI-1 renal assay, enter growth for "Cc1cnc(Nc2ccc(N3CCN(C)CC3)cc2)nc1Nc1ccc(Cl)c(NS(=O)(=O)C(C)(C)C)c1" here
[out] 25

[in] Lab note: CAKI-1 renal assay, enter growth for "O=C1/C(=C/c2ccccc2[N+](=O)[O-])COc2ccc(O)c(O)c21" here
[out] 6.79

[in] Lab note: CAKI-1 renal assay, enter growth for "COc1cc2c(c(OC)c1OC)C(=O)/C(=C/c1cc(C)c(O)c(C)c1)S2" here
[out] 26.3

[in] Lab note: CAKI-1 renal assay, enter growth for "CC(=O)c1sc(-c2ccccc2)cc1N" here
[out] 92.9

[in] Lab note: CAKI-1 renal assay, enter growth for OC(COc1cccc2ccccc12)CN1CCN(c2ccccc2)CC1 (stereo not given) here
[out] 47

[in] Lab note: CAKI-1 renal assay, enter growth for "CSc1ccc(Cl)c(C(=O)Nc2sccc2C(N)=O)c1" here
[out] 112

[in] Lab note: CAKI-1 renal assay, enter growth for "O=C(Nc1cccc2[nH]c(C(F)(F)F)nc12)c1cc(Cl)ccc1Cl" here
[out] 31.3

[in] Lab note: CAKI-1 renal assay, enter growth for "COc1ccc(-c2cc(-c3cc(OC)ccc3OC)[nH]c(=O)c2C#N)cc1" here
[out] 63

[in] Lab note: CAKI-1 renal assay, enter growth for "CCCCS(=O)(=O)Oc1ccc(-c2nc(C)c(C(=O)OCC)s2)cc1C=O" here
[out] 63.7

[in] Lab note: CAKI-1 renal assay, enter growth for "COc1ccccc1NC(=O)Nc1ccc(-c2nc3ccccc3o2)cc1" here
[out] 103

[in] Lab note: CAKI-1 renal assay, enter growth for "Nc1ccc(S(=O)(=O)Nc2ccsc2-c2nc(-c3ccccc3)no2)cc1" here
[out] 53.8

----------
- Test system: U251 CNS
- Test Method Notes: NCI-60 one-dose screen, 48 h
- Measurement Setup: 10 µM unless noted
- Procedure: Growth inhibition of the U251 human tumor cell line is measured as a screen for anti-cancer activity. Cells are grown in 96 well plates and exposed to the test compound for 48 hours. Compounds are tested at a single concentration, which is 10^-5 M for most compounds. The reported endpoint is percent growth (GI% or GIPRCNT), where numbers from 0 - 100% represent growth inhibition, and numbers from -100% - 0 represent cell death. For example, a value of 40 represents 60% growth inhibition. […]
The panel holds about 83,000 compounds, 20% with a hit somewhere; the sample as a whole holds those more often. The source made the active and inactive calls. The calls were made as follows: active = growth percent below 10; inactive = the rest.
Your response should consist of one outcome taken from active, inactive

Compound: COc1ccc(-n2ncn(CCCCCCn3cnn(-c4ccc(OC)cc4)c3=O)c2=O)cc1
Class Label: inactive

Compound: CC(C)OC(=O)NNC(=O)c1ccncc1
Class Label: inactive

Compound: O=C1Nc2ccc(Cl)cc2/C1=N/N=C/c1c[nH]c2ccccc12
Class Label: inactive

Compound: NC(=O)c1c(NC(=O)c2ccccn2)sc2c1CCC(=O)C2
Class Label: inactive

Compound: CN(C)CCOC(=O)Nc1ccc(Cl)cc1
Class Label: inactive

Compound: O=C1CSC(c2ccccc2Cl)N1c1nnc(Cn2cnnc2)o1 (stereo unspecified)
Class Label: inactive

[in] For "CCCCCCCSc1ccc(C(=O)O)cc1" , which call appears in the assay record?
[out] inactive

[in] For "O=C(CC12CC3CC(CC(C3)C1)C2)NCCOCCOCCNC(=O)c1cc2c(o1)C(=O)c1ccccc1C2=O" , which call appears in the assay record?
[out] active

[in] For "O=C(NCCOCCOCCOCCNC(=O)c1cc2c(o1)C(=O)c1ccccc1C2=O)NC12CC3CC(CC(C3)C1)C2" , which call appears in the assay record?
[out] active

[in] For "O=C(Nc1ccc(N2CCCCC2)c(Cl)c1)c1ccc(Br)o1" , which call appears in the assay record?
[out] inactive

[in] For "COc1cc(NC(=O)c2cccc(-c3cc(=O)c4c(OC)c(OC)c(OC)cc4o3)c2)cc(OC)c1OC" , which call appears in the assay record?
[out] inactive

[in] For "CSc1ncc(C)c(Nc2ccc(Cl)cc2)n1" , which call appears in the assay record?
[out] inactive

[in] For "CN(C)c1ccc(/C=C/c2c(F)cccc2F)cc1" , which call appears in the assay record?
[out] inactive

[in] For CCOC(=O)c1nnn(C(Cc2ccccc2Cl)C(=O)OCC)c1C (stereo unspecified) , which call appears in the assay record?
[out] inactive

[in] For "CN(C)CCCCNc1ccc(NCCCCN(C)C)c2c1C(=O)c1c(O)ccc(O)c1C2=O" , which call appears in the assay record?
[out] active

[in] For "Cc1c(C(N)=O)sc2nc(C)n(/N=c3\scc(-c4ccccc4)n3Cc3ccccc3)c(=O)c12" , which call appears in the assay record?
[out] active

Entry source: PubChem BioAssay (NCI)
